Source of measurements: patent US6737383B1

What Redroot pigweed plant response rating was measured for each of the following?
- Tested on: pigweed
- Assay Procedure: Test B pre/postemergence pigweed
- Assay type: in vivo, Amaranthus retroflexus
- Measurement Context: Preemergence, Rate 62 g/ha; scale of 0 to 10 where 0 is no effect and 10 is complete control
Answers are plain numbers.

Would you please look over these solved cases?
For CC(C)N(C(=O)n1oc(=O)n(CCCC#N)c1=O)c1ccccc1 the molecule record lists Redroot pigweed plant response rating as 7

Per the record, CC[C@@H](C)n1c(=O)on(C(=O)N(c2ccc(Cl)cc2)C(C)C)c1=O has Redroot pigweed plant response rating of 7

Dear colleague, could you please provide Redroot pigweed plant response rating for the molecules listed below?
1. Cc1cc(C)c(-n2c(=O)on(C(=O)N(c3ccc(F)cc3)C(C)C)c2=O)c(Br)c1
2. COCCOCn1c(=O)on(C(=O)N(c2ccc(F)cc2)C(C)C)c1=O

Out:
1. 0
2. 0
